target: 3',5'-cyclic-AMP phosphodiesterase 4B (Homo sapiens) (UniProt Q07343); assay: qHTS Assay for Inhibitors of PDE-IV (AID 607); details: HEK293 ACTOne CNG channel cells, membrane potential fluorescence; series mostly up to 22.9 µM
Sequence (Q07343 whole entry, looked up): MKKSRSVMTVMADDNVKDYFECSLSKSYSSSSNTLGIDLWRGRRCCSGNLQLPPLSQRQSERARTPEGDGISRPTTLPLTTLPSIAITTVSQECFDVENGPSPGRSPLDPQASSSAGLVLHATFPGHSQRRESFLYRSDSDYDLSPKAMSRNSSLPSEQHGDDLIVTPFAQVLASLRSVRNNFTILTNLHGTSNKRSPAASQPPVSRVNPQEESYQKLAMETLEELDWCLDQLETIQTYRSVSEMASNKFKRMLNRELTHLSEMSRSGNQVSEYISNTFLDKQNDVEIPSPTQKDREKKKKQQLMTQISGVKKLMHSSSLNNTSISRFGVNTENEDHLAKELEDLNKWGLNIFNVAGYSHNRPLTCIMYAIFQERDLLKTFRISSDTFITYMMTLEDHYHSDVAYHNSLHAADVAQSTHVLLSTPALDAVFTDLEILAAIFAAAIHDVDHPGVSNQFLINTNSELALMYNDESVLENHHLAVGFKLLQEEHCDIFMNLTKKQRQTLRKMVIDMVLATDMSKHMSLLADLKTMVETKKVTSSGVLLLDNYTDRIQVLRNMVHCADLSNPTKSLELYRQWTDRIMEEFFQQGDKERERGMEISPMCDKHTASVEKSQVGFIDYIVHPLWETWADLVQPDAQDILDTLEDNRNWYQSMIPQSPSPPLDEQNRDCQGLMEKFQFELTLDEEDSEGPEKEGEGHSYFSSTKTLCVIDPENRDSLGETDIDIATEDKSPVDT
Records with an inconclusive call do not appear. Activity calls are given as the source filed them. Calls follow the shape of the dose curve; as a rule, active = well fitted activation curve with a large enough effect in the main read-out, with a control signal flat (not every such curve was filed as active); inconclusive = small, poorly fitted or top-dose-only effect, or effect the other way, or a change in a side signal; inactive = flat fitted curve, though single readings scatter.
measured.endpoint: outcome

Field: example entries. Status: answers known.
smiles_data=CN(C)c1nc(-c2ccc3c(c2)OCO3)nc2ccccc12 meas_value=inactive
smiles_data=COCCn1c(=O)c(-c2cccc(C#N)c2)nc2cnc(OCc3ccccc3)nc21 meas_value=inactive
smiles_data=O=c1c(-c2cccc(F)c2)nc2cncnc2n1Cc1ccc(F)cc1 meas_value=inactive
smiles_data=COc1c2ccoc2cc2oc(=O)ccc12 meas_value=inactive
smiles_data=N#Cc1c(-c2ccccc2)no[n+]1[O-] meas_value=inactive

Please list outcome recorded for the molecule "CN1CCN(c2ncc3nc(-c4cn(C)c5ccccc45)c(=O)n(CCC#N)c3n2)CC1"
inactive

Please list outcome recorded for the molecule "COCCn1c(=O)c(-c2ccc(F)cc2)nc2cnc(Oc3ccccc3)nc21"
inactive

Please list outcome recorded for the molecule "COc1cccc(Nc2ncc3nc(-c4ccc(F)cc4)c(=O)n(CCC#N)c3n2)c1"
inactive

Please list outcome recorded for the molecule "O=c1cnc2cnc(N3CCOCC3)nc2n1Cc1cccs1"
inactive

Please list outcome recorded for the molecule "CN(C)Cc1ccccc1-c1ccc2ncnc(N(C)C)c2c1"
inactive

Please list outcome recorded for the molecule "COCCn1c(=O)c(CCc2ccccc2)nc2cncnc21"
inactive

Please list outcome recorded for the molecule "COc1ccc2[nH]cc(CCNc3ncnc4ccc(-c5ccccc5OC)cc34)c2c1"
inactive

Please list outcome recorded for the molecule "COc1cc2cc(Oc3ccc4ccc(=O)oc4c3)c(=O)oc2cc1O"
inactive

Please list outcome recorded for the molecule "COc1ncc2nc(CCc3ccccc3)c(=O)n(-c3ccccc3)c2n1"
inactive

Please list outcome recorded for the molecule "COc1ccccc1-c1nc(N2CCN(C)CC2)c2ccccc2n1"
inactive

Please list outcome recorded for the molecule "c1ccc(NN(Cc2cnccn2)c2ccccc2)cc1"
inactive

###

target: Lysosomal acid glucosylceramidase (Homo sapiens); assay: Glucocerebrosidase-p2 (AID 348); conditions: purified GBA, blue fluorogenic substrate, 40 min; also: potency is read from the fitted curve at half-maximal effect
The source made the active and inactive calls. Cut-off read from the data, not from the text of the source: active = potency below about 10 µM; inactive = the rest.
Pick one and only one: active, inactive

Answer briefly: the call reported for "CS(=O)(=O)Nc1cccc(-c2nc(Nc3ccncc3)c3ccccc3n2)c1" in this assay.
active

Answer briefly: the call reported for "Cc1nc2cnc(N3CCOCC3)nc2n(CCc2ccccc2)c1=O" in this assay.
inactive

Answer briefly: the call reported for "CC(=O)N1CCC2(CCCN(c3ccc(-c4ccccc4)cc3)C2)CC1" in this assay.
inactive

Answer briefly: the call reported for "CCNc1ncc2nc(CCc3ccccc3)c(=O)n(Cc3cccc(OC)c3)c2n1" in this assay.
inactive

Answer briefly: the call reported for "COc1ccc(-n2c(=O)c(-c3cccs3)nc3cnc(N4CCN(C)CC4)nc32)cc1" in this assay.
inactive

Answer briefly: the call reported for "CN1CCN(c2ncc3nc(-c4cn(C)c5ccccc45)c(=O)n(CCC#N)c3n2)CC1" in this assay.
inactive

Answer briefly: the call reported for "Clc1ccccc1NN(Cc1ccncc1)c1ccccc1Cl" in this assay.
inactive

Answer briefly: the call reported for "COc1ccc(Oc2ncc3nc(-c4ccc(F)cc4)c(=O)n(C[C@H]4CCCO4)c3n2)cc1" in this assay.
inactive

Answer briefly: the call reported for "N#Cc1cccc(-c2ccc3ncnc(NCc4cccs4)c3c2)c1" in this assay.
inactive

Answer briefly: the call reported for "Cc1cccc(CNc2ncncc2-c2ccccc2CN(C)C)c1" in this assay.
inactive

Answer briefly: the call reported for "N#CCCn1c(=O)c(-c2ccc(Cl)cc2)nc2cnc(N3CCOCC3)nc21" in this assay.
inactive

Answer briefly: the call reported for "COc1ccccc1CNc1nc(-c2cccc(NS(C)(=O)=O)c2)nc2ccccc12" in this assay.
inactive

Answer briefly: the call reported for "CCNc1ncc2ncc(=O)n(Cc3cccc(OC)c3)c2n1" in this assay.
inactive

Answer briefly: the call reported for "COc1ccc(Oc2ncc3nc(-c4cccc(C#N)c4)c(=O)n(CCC#N)c3n2)cc1" in this assay.
inactive

Answer briefly: the call reported for "COc1ccccc1CNc1cc(-c2ccccc2CN(C)C)ncn1" in this assay.
inactive

Answer briefly: the call reported for "CN1CCN(c2nc(-c3ccoc3)nc3ccccc23)CC1" in this assay.
inactive

Answer briefly: the call reported for "COc1cccc(Nc2ncc3ncc(=O)n(Cc4ccc(F)cc4)c3n2)c1" in this assay.
inactive

Answer briefly: the call reported for "CN(C)c1ncc2nc(-c3ccccc3)c(=O)n(C)c2n1" in this assay.
inactive

Answer briefly: the call reported for "CN1CCN(c2nc(-c3cccnc3)nc3ccccc23)CC1" in this assay.
inactive

Answer briefly: the call reported for "O=c1c(CCc2ccccc2)nc2cnc(N3CCNCC3)nc2n1Cc1cccs1" in this assay.
inactive

Answer briefly: the call reported for "COc1ncc2nc(-c3cccs3)c(=O)n(CCC#N)c2n1" in this assay.
inactive

Answer briefly: the call reported for "O=c1c(CCc2ccccc2)nc2cnc(Oc3ccccc3)nc2n1C1CC1" in this assay.
inactive

###

test: Cell Viability - LYMP1-002 - Assay at 40 hr (AID 994); details: LYMP1-002 lymphoblastoid cell viability; series mostly up to 92.2 µM; also: nearly all actives have a fitted effect of over 60% in size
Results filed as inconclusive are left out. The source made the active and inactive calls. The call rests on the fitted dose curve; in most records, active means well fitted cell-killing curve with a large enough effect; inconclusive means small, poorly fitted or top-dose-only effect; inactive means flat fitted curve, though single readings scatter.
measured.endpoint: outcome

compound="CC(C)=CCCC(C)CCO (stereo unspecified)" meas_value=inactive
compound=CC1=C2[C@H](/C=C(\C)C(=O)O)CC[C@@H](C)[C@H]2CC1 meas_value=inactive
compound=O=C(/C=C/c1ccc(O)c(O)c1)O[C@@H](C(=O)O)[C@@H](OC(=O)/C=C/c1ccc(O)c(O)c1)C(=O)O meas_value=inactive
compound=c1ccc2c(c1)c1cccc3ccc4cccc2c4c31 meas_value=inactive

Please list outcome recorded for the compound "C[C@H](CCC(=O)O)[C@H]1CC[C@H]2[C@@H]3CC[C@@H]4C[C@H](O)CC[C@]4(C)[C@H]3CC[C@]12C"
inactive

Please list outcome recorded for the compound "ClCCCl"
inactive

###

test system: CP266; assay: qHTS profiling for inhibitors of Plasmodium falciparum proliferation (AID 504749); also: nearly all actives have a fitted effect of over 60% in size; details: P. falciparum in erythrocytes, SYBR Green DNA, 72 h; series mostly up to 28.7 µM
Results filed as inconclusive are left out. Activity calls are given as the source filed them. The call rests on the fitted dose curve; in most records, active means well fitted inhibition curve with a large enough effect; inconclusive means small, poorly fitted or top-dose-only effect; inactive means flat fitted curve, though single readings scatter. Bridge positions count the residues as written; N and C are the ends. Square brackets hold non-standard residues; d marks the D form. Peptide text beside a SMILES is read from it. * marks the point of attachment. Octanoyl(6-Me) = CCC(C)CCCCC(=O)*; Dab = NCC[CH](N)C(=O)O
Pick one and only one: Yes (active), No (inactive)

Answer briefly: the call reported for "CO/N=C(/C(=O)N[C@@H]1C(=O)N2C(C(=O)O)=CCS[C@H]12)c1csc(N)n1" in this assay.
No

Answer briefly: the call reported for CC(=O)OC1CC2CCC1(C)C2(C)C (centres undefined) in this assay.
No

Answer briefly: the call reported for CCC(=O)O[C@@H](OP(=O)(CCCCc1ccccc1)CC(=O)N1C[C@H](C2CCCCC2)C[C@H]1C(=O)O)C(C)C (some centres undefined) in this assay.
No

Answer briefly: the call reported for Cc1cc(CC(C)CC(C)(C)C)n(O)c(=O)c1 (centres undefined) in this assay.
Yes

Answer briefly: the call reported for "C/C=C\c1ccc(OC)cc1" in this assay.
No

Answer briefly: the call reported for CC1CCC(C(C)C)C(OC(=O)c2ccccc2O)C1 (centres undefined) in this assay.
No

Answer briefly: the call reported for Nc1nc(Cl)nc2c1ncn2C1CC(O)C(CO)O1 (centres undefined) in this assay.
No

Answer briefly: the call reported for "CC(C)CN(C[C@@H](O)[C@H](Cc1ccccc1)NC(=O)O[C@H]1CCOC1)S(=O)(=O)c1ccc(N)cc1" in this assay.
No

Answer briefly: the call reported for CCC(C)CCCCC(=O)NC(CCN)C(=O)NC(C(=O)NC(CCN)C(=O)NC1CCNC(=O)C(C(C)O)NC(=O)C(CCN)NC(=O)C(CCN)NC(=O)C(CC(C)C)NC(=O)C(Cc2ccccc2)NC(=O)C(CCN)NC1=O)C(C)O (centres undefined) ({Octanoyl(6-Me)}-[Dab]T[Dab][Dab][Dab]FL[Dab][Dab]T; lactam 4-C; configuration not given here) in this assay.
No

Answer briefly: the call reported for "O=NCc1ccc([N+](=O)[O-])o1" in this assay.
No

Answer briefly: the call reported for CCC(C)n1ncn(-c2ccc(N3CCN(c4ccc(OCC5COC(Cn6cncn6)(c6ccc(Cl)cc6Cl)O5)cc4)CC3)cc2)c1=O (centres undefined) in this assay.
No

Answer briefly: the call reported for "CN1CC[C@H](CN2c3ccccc3Sc3ccccc32)C1" in this assay.
No

Answer briefly: the call reported for "CC1(C)S[C@@H]2[C@H](NC(=O)COc3ccccc3)C(=O)N2[C@H]1C(=O)O" in this assay.
No

Answer briefly: the call reported for "C1OCOCO1" in this assay.
No
